TESTED_ON: KRas G12R (Homo sapiens, UniProt P01116, G12R)
Sequence (P01116 1-169 isoform P01116-2 G12R): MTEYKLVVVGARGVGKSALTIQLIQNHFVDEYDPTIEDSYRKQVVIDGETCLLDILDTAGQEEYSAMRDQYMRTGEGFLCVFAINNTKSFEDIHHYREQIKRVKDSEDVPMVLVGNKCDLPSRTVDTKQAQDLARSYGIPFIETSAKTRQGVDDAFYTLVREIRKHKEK
TEST_PROTOCOL: biochemical;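 further: TR-FRET displacement assay of compound binding to KRas, read after one hour at room temperature, potency from a four-parameter fit of percent-of-control values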
ASSAY_READOUT: IC50 (nM)

Solved cases below.
[[record]]
compound = "O=C1NC(=O)C2(CCCN(c3nc(OCC45CCCN4CCC5)nc4c(F)c(-c5cccc6cccc(CO)c56)ncc34)C2)N1 (stereo not shown)"
quantity_unit = "nM"
reported = 964

[[record]]
compound = "O=C1NCC2(CCCN(c3nc(OCC45CCCN4CCC5)nc4c(F)c(-c5cccc6cccc(Cl)c56)ncc34)C2)N1 (stereo not shown)"
quantity_unit = "nM"
reported = 58

[[record]]
compound = "Fc1c(-c2cccc3cccc(F)c23)ncc2c(N3CCCC4CC43)nc(OCC34CCCN3CCC4)nc12 (stereo not shown)"
quantity_unit = "nM"
reported = 12800


[I] NS(=O)(=O)OC1CCCN(c2nc(OCC34CCCN3CCC4)nc3c(F)c(-c4cccc5cccc(F)c45)ncc23)C1 (stereo not shown)
[II] Fc1c(-c2cccc3cccc(F)c23)ncc2c(NCc3ccc4[nH]cnc4c3)nc(OCC34CCCN3CCC4)nc12
Task: Lab note: record which item had the higher IC50, I or II . Your answer should be the label of the entry you select.
Result: I
(I: 10500 nM, II: 1470 nM)
